assay: Effect of concentration on the stability of the solution (purity over time); conditions: 20 wt %; in water at 25° C.
Quick reference for Purity at hr 0 among some compounds
Numeric answer only, unit % assumed.

Take a look at these entries with their results.
>  <compound>
CCN(CC)CCOC(=O)Cc1ccc(C(=O)c2ccc(C)cc2)n1C.Cl

>  <value>
98.0

$$$$
>  <compound>
CCN(CC)CCOC(=O)CCc1nc(-c2ccccc2)c(-c2ccccc2)o1.Cl

>  <value>
98.7

$$$$

Okay, next one:
Supply measured Purity at hr 0 of CCN(CC)CCOC(=O)CC1=C(C)C(=Cc2ccc([S+](C)[O-])cc2)c2ccc(F)cc21.Cl (stereo not drawn) in your reply.
97.6

The values you see were collected from patent US20230157952A1.
